experiment: in vitro; details: human, MT4 cells
Description: Selectivity index, ratio of CC50 for human MT4 cells to EC50 for wild type HIV-1 IIIB infected in human MT4 cells
# selectivity ratio per entry
// response body must contain only the number

Below: 3 compounds and their reported selectivity ratio.
Cc1cc(/C=C/C#N)cc(C)c1Oc1ccnc(Nc2ccc3scnc3c2)n1 :: 26700
Cc1cc(/C=C/C#N)cc(C)c1Oc1ccnc(Nc2ccc3c(c2)OCCO3)n1 :: 855
Cc1cc(/C=C/C#N)cc(C)c1Oc1ccnc(Nc2ccc3c(C(F)(F)F)cc(=O)oc3c2)n1 :: 2420

Form field: reported selectivity ratio of Cc1cc(/C=C/C#N)cc(C)c1Oc1ccnc(Nc2ccc3c(c2)CCN(S(N)(=O)=O)C3)n1 748

What do you have for Cc1cc(/C=C/C#N)cc(C)c1Oc1ccnc(Nc2ccc3c(c2)CN(C(=O)CS(C)(=O)=O)CC3)n1 ? 524

What do you have for Cc1nc2cc(Nc3nccc(Oc4c(C)cc(/C=C/C#N)cc4C)n3)ccc2s1 ? 431

The measured values listed here are drawn from ChEMBL document CHEMBL6087416.
